Form field: IC50 (µM), VQIINK Inhibition (ThT) (one value per entry).
target_or_test_system: T1, Ac-VQIINK-NH2
T1 peptide: Ac-VQIINK-NH2
assay_info: cell-based or functional assay
Value expressed in µM; do not type the unit.

RIALYWW    2.39
IRIWVW    2.43
WRIHIRYW    3.17
WRIWIRW    2.73

Identify measured IC50 (µM), VQIINK Inhibition (ThT) associated with `WRIRIWYW`
2.43

Give IC50 (µM), VQIINK Inhibition (ThT) for the following binder: `LRIRIRL`
17.8

Note IC50 (µM), VQIINK Inhibition (ThT) for the binder shown: `WRIWLRYW`
2.32

Dear colleague, please send me the reported IC50 (µM), VQIINK Inhibition (ThT) for `WRIWIREW` when you can.
3.96

Look up and state reported IC50 (µM), VQIINK Inhibition (ThT) for `RWWIRIRYW`
2.76
